Test: Pharmacokinetic analysis after single oral administration to male cynomolgus monkeys, with plasma levels of parent and glucuronidation metabolites
Conditions: cynomolgus monkey, in vivo, 25 mg/kg
QUANTITY MEASURED: Tmax (h)
Answers are plain numbers, in h.

// query Reported Tmax for `[2H]C([2H])([2H])Oc1cc(C(=O)NC)ccc1NCC#Cc1cc2c(N[C@@H]3CCN(C)C[C@@H]3F)cccc2n1CC(F)(F)F` : what is it?
// result 2

----------
Assay: Pharmacokinetic analysis after single oral administration to male cynomolgus monkeys, with plasma levels of parent and glucuronidation metabolites
Details: cynomolgus monkey, in vivo, 25 mg/kg
QUANTITY MEASURED: half-life (h)
Answers are plain numbers, in h.

// query Entry under review: [2H]C([2H])([2H])Oc1cc(C(=O)NC)ccc1NCC#Cc1cc2c(N[C@@H]3CCN(C)C[C@@H]3F)cccc2n1CC(F)(F)F [Compound 3] . Reported half-life?
// result 6.37

----------
Experiment: Pharmacokinetic analysis after single oral administration to male cynomolgus monkeys, with plasma levels of parent and glucuronidation metabolites
Settings: cynomolgus monkey, in vivo, 25 mg/kg, AUC0-24, analyte Parent
QUANTITY MEASURED: AUC(0-t) (µg·h/mL)
Numbers only, in µg·h/mL.

// query Report AUC(0-t) for `[2H]C([2H])([2H])Oc1cc(C(=O)NC)ccc1NCC#Cc1cc2c(N[C@@H]3CCN(C)C[C@@H]3F)cccc2n1CC(F)(F)F` please.
// result 107

----------
Assay: Pharmacokinetic analysis after single oral administration to male cynomolgus monkeys, with plasma levels of parent and glucuronidation metabolites
Conditions: cynomolgus monkey, in vivo, 25 mg/kg
QUANTITY MEASURED: Cmax (ng/mL)
One number for each entry, in ng/mL.

// query // lookup Cmax for `[2H]C([2H])([2H])Oc1cc(C(=O)NC)ccc1NCC#Cc1cc2c(N[C@@H]3CCN(C)C[C@@H]3F)cccc2n1CC(F)(F)F`
// result 10000
